# System: HeLa MZ
# experimental.details: LBPA endosome anti-LBPA integrated intensity (sum per cell), Z-score; higher = more LBPA staining
# protocol.conditions: compound concentration in added solution (µM; 5 µl added to 20 µl cells): 10; 18 h
Structures can show the parent of a compound that is named as a salt.
measure.name: LBPA endosome anti-LBPA integrated intensity (z-score)

| molecule | measurement.target | measured.value |
| --- | --- | --- |
| CCN(CC)CCOC(=O)C(c1ccccc1)C1CCCCC1 (centres undefined) [Drofenine hydrochloride] | HeLa MZ | 2.6 |
| C[N+]1(CCCCC[N+]2(C)CCCC2)CCCC1 [Pentolinium bitartrate] | HeLa MZ | -0.278 |
| Cc1cc(-n2c(=O)[nH]c(=O)n(C)c2=O)ccc1Oc1ccc(SC(F)(F)F)cc1 | HeLa MZ | 0.612 |
| Nc1ccc(O)c(C(=O)O)c1 | HeLa MZ | 0.304 |
